- target.system: KRAS G12V (Homo sapiens (Human), UniProt P01116+P62937, G12V)
- Sequence (P01116-2 other isoform, or with tags, fused parts or gaps G12V): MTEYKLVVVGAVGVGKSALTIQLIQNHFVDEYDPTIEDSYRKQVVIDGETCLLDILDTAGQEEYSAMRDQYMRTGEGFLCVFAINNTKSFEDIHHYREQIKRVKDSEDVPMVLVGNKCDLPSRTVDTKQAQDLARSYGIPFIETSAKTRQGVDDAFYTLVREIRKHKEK
- Sequence (P62937 whole entry): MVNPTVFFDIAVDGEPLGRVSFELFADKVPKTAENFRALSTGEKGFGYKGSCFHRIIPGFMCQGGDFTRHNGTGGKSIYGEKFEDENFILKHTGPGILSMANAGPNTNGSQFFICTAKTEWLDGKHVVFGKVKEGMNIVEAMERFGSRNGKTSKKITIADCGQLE
- protocol.text: Ras-Raf (BRAF RBD) disruption / FRET / MOA assay, KRAS G12V
- Format: biochemical
- test.conditions: read-out: IC50* KRAS G12V FRET data
Each entry below carries its reported IC50.

Query string: Tell me IC50 reported for C=CS(=O)(=O)N1CC[C@H](C(=O)N(C)[C@H](C(=O)N[C@H]2Cc3cc(O)cc(c3)-c3ccc4c(c3)c(c(-c3cncnc3)n4CC)CC(C)(C)COC(=O)[C@@H]3CCCN(N3)C2=O)C(C)C)C1
Result string: 1 to 10 µM

Continuing:
Query string: Tell me IC50 reported for C=CC(=O)N1CC[C@@]2(COCCN2C(=O)N(C)[C@H](C(=O)N[C@H]2Cc3nc(cs3)-c3ccc4c(c3)c(c(-c3cccnc3[C@H](C)OC)n4CC)CC(C)(C)COC(=O)[C@@H]3CCCN(N3)C2=O)C(C)C)C1 (atropisomer, axis not shown)
Result string: 1 to 10 µM
